B1: HDV Ribozyme (parent)
chain: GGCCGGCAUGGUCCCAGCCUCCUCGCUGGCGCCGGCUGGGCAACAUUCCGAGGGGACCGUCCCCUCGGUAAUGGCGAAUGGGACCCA

variants of: B1; assay: self-cleavage, relative activity (ratio to wild type); higher = more cleavage; co-transcriptional
# self-cleavage per record follows
measurementName: self-cleavage

sequencechange="G11C G55A" observedresult=0.407
sequencechange="C4G G52U" observedresult=0.215
sequencechange="A8U G31A" observedresult=0.405
sequencechange="G40C A56C" observedresult=0.197
sequencechange="G68A G73U" observedresult=0.251
sequencechange="U27G C41A" observedresult=0.969
sequencechange="C19G C26A" observedresult=0.104
sequencechange="C49U G67C" observedresult=1.1
sequencechange="G52U G80C" observedresult=0.241
sequencechange="G5A U69G" observedresult=0.353
sequencechange="A42U A77U" observedresult=0.0739

Values were extracted from the RNAGym collection of RNA variant scans (doi:10.7554/elife.80360).
